molecular target: Prostaglandin E synthase (Homo sapiens) (UniProt O14684); assay: Inhibition of recombinant human mPGES-1 expressed in CHO cells assessed as reduction in PGE2 formation at 10 uM using PGH2 a substrate preincubated for 10 mins followed by substrate addition measured after 1 min relative to control; assay type: cell-based
Sequence (O14684 whole entry): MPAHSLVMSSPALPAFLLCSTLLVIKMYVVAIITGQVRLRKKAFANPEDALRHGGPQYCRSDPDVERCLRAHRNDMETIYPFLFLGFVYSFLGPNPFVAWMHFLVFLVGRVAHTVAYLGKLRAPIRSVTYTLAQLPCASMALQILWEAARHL
inhibition below 90% gives False; inhibition at or above it gives True.

Solved cases (5 shown):
| Smiles Structure | Class Assignment |
| --- | --- |
| CC1(C)Oc2cc(-c3ccc(OC(F)(F)F)cc3)ccc2-c2[nH]c(-c3c(F)cccc3Cl)nc21 | False |
| CC1(C)Oc2cc(Br)ccc2-c2[nH]c(-c3c(F)cccc3Cl)nc21 | True |
| CC1(C)Oc2cc(C(=O)NC3CCCCC3)ccc2-c2nc(-c3c(F)cccc3Cl)[nH]c21 | False |
| CC1(C)Oc2cc(I)ccc2-c2[nH]c(-c3c(F)cccc3Cl)nc21 | False |
| CC1(C)Oc2cc(-c3ccc(C(F)(F)F)cc3)ccc2-c2[nH]c(-c3c(F)cccc3Cl)nc21 | False |

Hi, just wondering whether CC1(C)Oc2cc(-c3nc4ccccc4[nH]3)ccc2-c2nc(-c3c(F)cccc3Cl)[nH]c21 shows inhibition of 90% or higher.
False

Hi, just wondering whether CC1(C)Oc2cc(C(=O)Nc3ccc(C(F)(F)F)cc3)ccc2-c2[nH]c(-c3c(F)cccc3Cl)nc21 shows inhibition of 90% or higher.
True

Hi, just wondering whether CC1(C)Oc2cc(-c3ccc(Cl)cc3)ccc2-c2[nH]c(-c3c(F)cccc3Cl)nc21 shows inhibition of 90% or higher.
True
